# Experiment: Pharmacokinetic analysis of RA in an SH-SY5Y xenograft model (retinoid concentrations in plasma, liver, tumour by LC/MS)
# Type: in vivo, CD-1 nude mice
# Run parameters: female, CD-1 nu/nu (athymic nude), mouse, liver, po, 100 mg kg^−1, after ATRA 100 mg kg^−1 oral; liver; 6 h; label = retinoid measured; read-out: Liver concentration, 6 h
Measured parameter: concentration at 6 h (ng/g)

1: CC1=C(/C=C/C(C)=C/C=C/C(C)=C\C(=O)O)C(C)(C)CCC1 [13cisRA, 13-cis-retinoic acid]
2: CC1=C(/C=C/C(C)=C/C=C/C(C)=C/C(=O)O)C(C)(C)CCC1 [ATRA, all-trans-retinoic acid]
Enquiry: I'm curious, which of these has a smaller concentration at 6 h number: 1 or 2 ? Please reply using the label of the selected record.
Return: 1
(1: 250 ng/g, 2: 2400 ng/g)

###

# Experiment: Pharmacokinetic analysis of RA in an SH-SY5Y xenograft model (retinoid concentrations in plasma, liver, tumour by LC/MS)
# Type: in vivo, CD-1 nude mice
# Run parameters: female, CD-1 nu/nu (athymic nude), mouse, plasma, po, 100 mg kg^−1, after 13cisRA 100 mg kg^−1 oral; plasma; 6 h; label = retinoid measured; read-out: Plasma concentration, 6 h
Measured parameter: concentration at 6 h (nM)

A: CC1=C(/C=C/C(C)=C/C=C/C(C)=C\C(=O)O)C(C)(C)CCC1 [13cisRA, 13-cis-retinoic acid]
B: CC1=C(/C=C/C(C)=C/C=C/C(C)=C/C(=O)O)C(C)(C)CCC1 [ATRA, all-trans-retinoic acid]
Enquiry: Which value of concentration at 6 h is smaller, the one for A or the one for B ? Identify your pick by its label.
Return: B
(B: 80 nM, A: 4690 nM)

###

# Experiment: Pharmacokinetic analysis of RA in an SH-SY5Y xenograft model (retinoid concentrations in plasma, liver, tumour by LC/MS)
# Type: in vivo, CD-1 nude mice
# Run parameters: after ATRA 100 mg kg^−1 oral; liver; 2 h; label = retinoid measured
Measured parameter: % Total retinoids, liver, 2 h (%)

Below, each entry is followed by its recorded % Total retinoids, liver, 2 h result.
Compound	% Total retinoids, liver, 2 h, %
CC1=C(/C=C/C(C)=C/C=C/C(C)=C/C(=O)O)C(C)(C)CCC1=O [AT-4-oxoRA, all-trans-4-oxo-RA]	13
CC1=C(/C=C/C(C)=C/C=C/C(C)=C\C(=O)O)C(C)(C)CCC1 [13cisRA, 13-cis-retinoic acid]	5

1: CC1=C(/C=C/C(C)=C/C=C/C(C)=C\C(=O)O)C(C)(C)CCC1=O [13cis-4-oxoRA, 13-cis-4-oxo-RA]
2: CC1=C(/C=C/C(C)=C/C=C/C(C)=C/C(=O)O)C(C)(C)CCC1 [ATRA, all-trans-retinoic acid]
Enquiry: Given 1 and given 2 , which shows the smaller recorded % Total retinoids, liver, 2 h? Record your answer as the label of the chosen record.
Return: 1
(1: 1%, 2: 81%)

###

# Experiment: Pharmacokinetic analysis of RA in an SH-SY5Y xenograft model (retinoid concentrations in plasma, liver, tumour by LC/MS)
# Format: in vivo, CD-1 nude mice
# Run parameters: after ATRA 100 mg kg^−1 oral; plasma; 0.5 h; label = retinoid measured
Measured parameter: % Total retinoids, plasma, 0.5 h (%)

Molecule	Measured parameter	Unit descriptor	Test value
CC1=C(/C=C/C(C)=C/C=C/C(C)=C\C(=O)O)C(C)(C)CCC1 [13cisRA, 13-cis-retinoic acid]	% Total retinoids, plasma, 0.5 h	%	5

1: CC1=C(/C=C/C(C)=C/C=C/C(C)=C/C(=O)O)C(C)(C)CCC1=O [AT-4-oxoRA, all-trans-4-oxo-RA]
2: CC1=C(/C=C/C(C)=C/C=C/C(C)=C/C(=O)O)C(C)(C)CCC1 [ATRA, all-trans-retinoic acid]
Enquiry: Dear colleague, could you let me know whether 1 or 2 has the lower recorded % Total retinoids, plasma, 0.5 h? Thanks. Use the label to indicate which entry you chose.
Return: 1

###

# Experiment: Pharmacokinetic analysis of RA in an SH-SY5Y xenograft model (retinoid concentrations in plasma, liver, tumour by LC/MS)
# Assay type: in vivo, CD-1 nude mice
# Run parameters: female, CD-1 nu/nu (athymic nude), mouse, liver, po, 100 mg kg^−1, after 13cisRA 100 mg kg^−1 oral; liver; 0.5 h; label = retinoid measured; read-out: Liver concentration, 0.5 h
# Procedure: All in vivo experiments were approved by the relevant institutional animal welfare committees, and performed according to national law. […] Resolution of retinoids was performed with a Luna C18(2) column (3 μm, 50 mm × 2 mm) using a Perkin Elmer LC (Beaconsfield, UK) system, consisting of a vacuum degasser, two series 200 pumps, a thermostatically controlled series 200 autosampler and a Waters 2487 UV absorbance detector. […]
Measured parameter: concentration at 0.5 h (ng/g)

a: CC1=C(/C=C/C(C)=C/C=C/C(C)=C/C(=O)O)C(C)(C)CCC1 [ATRA, all-trans-retinoic acid]
b: CC1=C(/C=C/C(C)=C/C=C/C(C)=C\C(=O)O)C(C)(C)CCC1 [13cisRA, 13-cis-retinoic acid]
Enquiry: Would you mind telling me which has the lower recorded concentration at 0.5 h between a and b ? Response format: the label of the selected entry.
Return: a

###

# Experiment: Pharmacokinetic analysis of RA in an SH-SY5Y xenograft model (retinoid concentrations in plasma, liver, tumour by LC/MS)
# Format: in vivo, CD-1 nude mice
# Run parameters: female, CD-1 nu/nu (athymic nude), mouse, tumour (SH-SY5Y xenograft), po, 100 mg kg^−1, after ATRA 100 mg kg^−1 oral; SH-SY5Y tumour; 0.5 h; label = retinoid measured; read-out: Tumour concentration, 0.5 h
Measured parameter: concentration at 0.5 h (ng/g)

I: CC1=C(/C=C/C(C)=C/C=C/C(C)=C/C(=O)O)C(C)(C)CCC1 [ATRA, all-trans-retinoic acid]
II: CC1=C(/C=C/C(C)=C/C=C/C(C)=C\C(=O)O)C(C)(C)CCC1 [13cisRA, 13-cis-retinoic acid]
Enquiry: I would appreciate it if you could say which entry, I or II , has the lower concentration at 0.5 h value. Could you answer with the label of the item you picked?
Return: II

###

# Experiment: Pharmacokinetic analysis of RA in an SH-SY5Y xenograft model (retinoid concentrations in plasma, liver, tumour by LC/MS)
# Assay type: in vivo, CD-1 nude mice
# Run parameters: after 13cisRA 100 mg kg^−1 oral; plasma; 0.5 h; label = retinoid measured
Measured parameter: % Total retinoids, plasma, 0.5 h (%)

Molecule	Test value
CC1=C(/C=C/C(C)=C/C=C/C(C)=C\C(=O)O)C(C)(C)CCC1=O [13cis-4-oxoRA, 13-cis-4-oxo-RA]	2
CC1=C(/C=C/C(C)=C/C=C/C(C)=C/C(=O)O)C(C)(C)CCC1=O [AT-4-oxoRA, all-trans-4-oxo-RA]	0

A: CC1=C(/C=C/C(C)=C/C=C/C(C)=C\C(=O)O)C(C)(C)CCC1 [13cisRA, 13-cis-retinoic acid]
B: CC1=C(/C=C/C(C)=C/C=C/C(C)=C/C(=O)O)C(C)(C)CCC1 [ATRA, all-trans-retinoic acid]
Enquiry: Hey, between A and B which has a smaller measured % Total retinoids, plasma, 0.5 h? // return label of chosen record
Return: B
(B: 5%, A: 93%)

###

# Experiment: Pharmacokinetic analysis of RA in an SH-SY5Y xenograft model (retinoid concentrations in plasma, liver, tumour by LC/MS)
# Format: in vivo, CD-1 nude mice
# Run parameters: after 13cisRA 100 mg kg^−1 oral; plasma; 2 h; label = retinoid measured
Measured parameter: % Total retinoids, plasma, 2 h (%)

Compound	Unit descriptor	% Total retinoids, plasma, 2 h
CC1=C(/C=C/C(C)=C/C=C/C(C)=C\C(=O)O)C(C)(C)CCC1=O [13cis-4-oxoRA, 13-cis-4-oxo-RA]	%	3

P: CC1=C(/C=C/C(C)=C/C=C/C(C)=C/C(=O)O)C(C)(C)CCC1 [ATRA, all-trans-retinoic acid]
Q: CC1=C(/C=C/C(C)=C/C=C/C(C)=C\C(=O)O)C(C)(C)CCC1 [13cisRA, 13-cis-retinoic acid]
Enquiry: Of P and Q , which one carries the higher reported % Total retinoids, plasma, 2 h? Output the label that corresponds to your choice.
Return: Q
